# run.description: Cytotoxicity (CC50) in HEK293 cells
# Type: cell-based
# test.parameters: human, WNV
Mark Yes only when CC50 stays strictly below 30 µM. Values equal to the cut-off are No.

Here's what some known entries look like.
O=C(Nc1cnn([C@@H]2O[C@H](CO)[C@@H](O)[C@H]2O)c(=O)n1)C1CCC1	Yes
CC[C@H](C)[C@H](N)C(=O)OC[C@H]1O[C@@H](n2ncc(=O)[nH]c2=O)[C@H](O)[C@@H]1O	Yes
CC(C)COC(=O)[C@H](C)NP(=O)(OC[C@H]1O[C@@H](n2ncc(=O)[nH]c2=O)C(O)[C@H]1O)Oc1ccccc1 (stereo in doubt)	No
CC(C)COC(=O)[C@H](C)N[P@](=O)(OC[C@H]1O[C@@H](n2ncc(=O)[nH]c2=O)[C@H](O)[C@@H]1O)Oc1cccc2ccccc12	No
CCOP(=O)(OCC)OC[C@H]1O[C@@H](n2ncc(=O)[nH]c2=O)C(O)C1O (stereo partly drawn)	No

Does the reported CC50 of the following compound sit strictly below 30 µM? C[C@H](NP(=O)(OC[C@H]1O[C@@H](n2ncc(=O)[nH]c2=O)[C@H](O)[C@@H]1O)Oc1ccccc1)C(=O)OCc1ccc([N+](=O)[O-])o1 (mixture of isomers) No

Does the reported CC50 of the following compound sit strictly below 30 µM? CC(C)[C@@H](N)C(=O)OC[C@H]1O[C@@H](n2ncc(=O)[nH]c2=O)C(O)[C@H]1O (stereo partly drawn) Yes

Does the reported CC50 of the following compound sit strictly below 30 µM? CCCCCCCCCCCC(=O)Nc1cnn([C@@H]2O[C@H](CO)[C@@H](O)[C@H]2O)c(=O)n1 No

Does the reported CC50 of the following compound sit strictly below 30 µM? CCCC(=O)Nc1cnn([C@@H]2O[C@H](CO)[C@@H](O)[C@H]2O)c(=O)n1 Yes

Does the reported CC50 of the following compound sit strictly below 30 µM? CC[C@H](C)[C@H](N)C(=O)OC[C@H]1O[C@@H](n2ncc(N)nc2=O)[C@H](O)[C@@H]1O No
